# System: CCRF-CEM
# PROTOCOL TEXT: Tested for the inhibitory concentration against cell growth of Tcell leukemic cell line CCRF-CEM using MTT assay
# Assay type: functional
# PROTOCOL CONDITIONS: Homo sapiens
OBSERVATION TYPE: TGI (µM)
Response body: numeric value in µM, unit text excluded.

1) C/C(=N/N=C(/S)N/N=C(\S)c1ccc(Cl)cc1)C12CC3CC(CC(C3)C1)C2 :: 100
2) C/C(=N/N=C(/S)N/N=C(\S)c1ccc(Cl)cc1Cl)C12CC3CC(CC(C3)C1)C2 :: 100
3) N/N=C(\S)N/N=C(/c1ccccn1)C12CC3CC(CC(C3)C1)C2 :: 100
4) C/C(=N/N=C(\N)S)C12CC3CC(CC(C3)C1)C2 :: 55.2

Query: # get_value(readout='TGI', item= S=C(N/N=C(/c1ccccn1)C12CC3CC(CC(C3)C1)C2)NNC(=S)c1ccc(Cl)cc1Cl )
Response: 100

Query: # get_value(readout='TGI', item= S=C(N/N=C(/c1ccccn1)C12CC3CC(CC(C3)C1)C2)NNC(=S)c1ccc(Cl)cc1 )
Response: 100

Query: # get_value(readout='TGI', item= C/C(=N/N=C(/S)NN)C12CC3CC(CC(C3)C1)C2 )
Response: 100

Query: # get_value(readout='TGI', item= CC[C@]1(O)C[C@@H]2CN(CCc3c([nH]c4ccccc34)[C@@](C(=O)OC)(c3cc4c(cc3OC)N(C)[C@H]3[C@@](O)(C(=O)OC)[C@H](OC(C)=O)[C@]5(CC)C=CCN6CC[C@]43[C@@H]65)C2)C1 )
Response: 0.00191
